# SYSTEM_UNDER_TEST: 6H-hSMG-1 (Homo sapiens)
# Construct: made in house; host or cells: 293T cells transfected with SR6H-hSMG-1; immunoprecipitated with anti-polyhistidine antibody
# Sequence (Q96Q15 111-3661): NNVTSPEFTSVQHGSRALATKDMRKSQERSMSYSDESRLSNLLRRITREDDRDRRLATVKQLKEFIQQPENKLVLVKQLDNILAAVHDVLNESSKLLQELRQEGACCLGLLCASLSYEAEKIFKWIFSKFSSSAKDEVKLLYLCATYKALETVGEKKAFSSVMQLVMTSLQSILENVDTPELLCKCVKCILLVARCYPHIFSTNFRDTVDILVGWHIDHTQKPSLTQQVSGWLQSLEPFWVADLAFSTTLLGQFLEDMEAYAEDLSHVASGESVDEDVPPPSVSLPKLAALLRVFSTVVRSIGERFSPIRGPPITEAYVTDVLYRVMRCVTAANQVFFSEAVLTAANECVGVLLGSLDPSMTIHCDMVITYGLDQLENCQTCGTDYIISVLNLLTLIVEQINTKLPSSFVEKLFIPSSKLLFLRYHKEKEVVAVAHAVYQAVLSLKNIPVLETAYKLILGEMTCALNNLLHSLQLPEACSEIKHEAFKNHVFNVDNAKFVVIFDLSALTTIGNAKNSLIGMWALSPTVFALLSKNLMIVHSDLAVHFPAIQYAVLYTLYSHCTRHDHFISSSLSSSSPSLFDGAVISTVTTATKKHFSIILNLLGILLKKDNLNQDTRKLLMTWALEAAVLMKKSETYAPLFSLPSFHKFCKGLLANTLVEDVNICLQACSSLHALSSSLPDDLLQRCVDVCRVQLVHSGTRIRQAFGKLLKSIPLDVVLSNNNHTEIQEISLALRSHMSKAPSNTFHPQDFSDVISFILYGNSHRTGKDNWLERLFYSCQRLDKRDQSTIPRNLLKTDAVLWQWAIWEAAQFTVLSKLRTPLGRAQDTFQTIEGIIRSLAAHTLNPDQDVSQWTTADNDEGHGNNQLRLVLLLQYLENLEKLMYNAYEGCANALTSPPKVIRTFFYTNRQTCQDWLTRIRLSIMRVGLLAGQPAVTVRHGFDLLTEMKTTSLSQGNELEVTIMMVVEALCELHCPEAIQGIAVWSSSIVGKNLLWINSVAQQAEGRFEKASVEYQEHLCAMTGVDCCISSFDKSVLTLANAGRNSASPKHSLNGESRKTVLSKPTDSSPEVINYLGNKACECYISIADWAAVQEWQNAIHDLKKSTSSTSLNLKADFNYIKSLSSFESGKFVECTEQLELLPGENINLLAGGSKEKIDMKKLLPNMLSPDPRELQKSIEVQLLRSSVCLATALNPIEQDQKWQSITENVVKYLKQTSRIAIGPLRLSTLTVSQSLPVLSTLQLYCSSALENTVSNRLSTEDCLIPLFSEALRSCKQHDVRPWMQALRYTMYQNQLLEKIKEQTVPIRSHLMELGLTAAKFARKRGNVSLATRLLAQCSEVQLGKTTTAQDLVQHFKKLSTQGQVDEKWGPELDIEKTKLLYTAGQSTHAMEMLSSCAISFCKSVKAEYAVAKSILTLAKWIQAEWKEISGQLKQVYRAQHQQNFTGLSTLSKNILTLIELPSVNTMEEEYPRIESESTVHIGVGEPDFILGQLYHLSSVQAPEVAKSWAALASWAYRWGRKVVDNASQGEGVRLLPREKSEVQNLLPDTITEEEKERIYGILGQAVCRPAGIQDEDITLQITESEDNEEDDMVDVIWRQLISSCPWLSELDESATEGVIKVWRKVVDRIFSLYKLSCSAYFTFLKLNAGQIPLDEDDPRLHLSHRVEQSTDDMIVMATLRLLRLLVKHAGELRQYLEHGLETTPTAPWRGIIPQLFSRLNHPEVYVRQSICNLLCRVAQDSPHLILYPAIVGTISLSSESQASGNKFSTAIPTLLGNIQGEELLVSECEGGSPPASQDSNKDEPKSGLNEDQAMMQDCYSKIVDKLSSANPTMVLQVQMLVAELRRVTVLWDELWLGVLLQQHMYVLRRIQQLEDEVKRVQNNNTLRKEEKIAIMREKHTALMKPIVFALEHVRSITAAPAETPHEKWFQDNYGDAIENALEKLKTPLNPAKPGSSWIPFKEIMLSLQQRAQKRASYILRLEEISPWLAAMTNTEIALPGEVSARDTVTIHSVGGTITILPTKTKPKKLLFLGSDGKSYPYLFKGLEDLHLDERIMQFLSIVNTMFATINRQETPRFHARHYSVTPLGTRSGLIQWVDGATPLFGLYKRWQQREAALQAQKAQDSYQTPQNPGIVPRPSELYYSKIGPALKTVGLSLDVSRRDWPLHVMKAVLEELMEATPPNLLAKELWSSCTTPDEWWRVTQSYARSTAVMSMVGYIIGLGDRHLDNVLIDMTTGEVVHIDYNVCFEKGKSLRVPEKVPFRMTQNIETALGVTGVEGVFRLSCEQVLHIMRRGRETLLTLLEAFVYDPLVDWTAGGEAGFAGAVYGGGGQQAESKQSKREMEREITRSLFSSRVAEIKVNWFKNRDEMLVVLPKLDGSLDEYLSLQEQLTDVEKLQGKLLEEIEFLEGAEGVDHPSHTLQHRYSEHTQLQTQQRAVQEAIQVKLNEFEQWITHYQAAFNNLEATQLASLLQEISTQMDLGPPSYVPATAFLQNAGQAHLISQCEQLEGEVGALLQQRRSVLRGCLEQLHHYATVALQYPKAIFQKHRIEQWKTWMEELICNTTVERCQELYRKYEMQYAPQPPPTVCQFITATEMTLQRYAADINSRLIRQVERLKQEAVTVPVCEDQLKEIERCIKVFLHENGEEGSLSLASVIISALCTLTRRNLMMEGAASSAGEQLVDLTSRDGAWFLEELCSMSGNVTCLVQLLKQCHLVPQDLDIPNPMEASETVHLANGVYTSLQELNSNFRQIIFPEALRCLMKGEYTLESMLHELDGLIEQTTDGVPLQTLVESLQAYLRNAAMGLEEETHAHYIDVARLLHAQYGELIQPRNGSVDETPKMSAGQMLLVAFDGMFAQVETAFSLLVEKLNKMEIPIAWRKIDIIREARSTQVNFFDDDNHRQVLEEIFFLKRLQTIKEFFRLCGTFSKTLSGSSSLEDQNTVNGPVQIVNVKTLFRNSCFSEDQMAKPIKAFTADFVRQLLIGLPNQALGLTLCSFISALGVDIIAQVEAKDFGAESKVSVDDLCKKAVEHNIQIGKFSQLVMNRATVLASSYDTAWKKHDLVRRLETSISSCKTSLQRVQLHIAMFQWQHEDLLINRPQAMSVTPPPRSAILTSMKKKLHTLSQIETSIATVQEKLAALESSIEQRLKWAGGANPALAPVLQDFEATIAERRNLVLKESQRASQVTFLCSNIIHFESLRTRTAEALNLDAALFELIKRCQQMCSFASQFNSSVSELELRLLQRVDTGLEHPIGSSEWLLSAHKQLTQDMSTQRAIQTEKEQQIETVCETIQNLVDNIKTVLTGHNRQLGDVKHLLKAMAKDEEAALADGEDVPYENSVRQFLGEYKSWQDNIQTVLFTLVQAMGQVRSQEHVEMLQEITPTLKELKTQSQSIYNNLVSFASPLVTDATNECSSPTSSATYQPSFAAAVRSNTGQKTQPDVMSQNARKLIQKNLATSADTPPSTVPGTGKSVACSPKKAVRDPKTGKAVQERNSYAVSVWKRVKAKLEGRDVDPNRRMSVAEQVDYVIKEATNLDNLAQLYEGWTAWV
# TEST: in vitro kinase assay of 6H-hSMG-1 with hUpf1/SMG-2 fusion protein (S1096) as substrate
# Type: biochemical
# EXPERIMENTAL_CONTEXT: substrate hUpf1/SMG-2 fusion protein (S1096); FIG. 26; read-out: IC50, inhibition of the kinase activity of 6H-hSMG-1
pIC50: −log10 of the molar value.

COMPOUND: COC[C@H]1OC(=O)c2coc3c2[C@@]1(C)C1=C(C3=O)[C@@H]2CCC(=O)[C@@]2(C)C[C@H]1OC(C)=O [wortmannin]
pIC50: ~7.22
